Cited source: ChEMBL document CHEMBL1137501

Molecular target: Vasopressin V2 receptor (Homo sapiens)
Sequence (P30518 whole entry): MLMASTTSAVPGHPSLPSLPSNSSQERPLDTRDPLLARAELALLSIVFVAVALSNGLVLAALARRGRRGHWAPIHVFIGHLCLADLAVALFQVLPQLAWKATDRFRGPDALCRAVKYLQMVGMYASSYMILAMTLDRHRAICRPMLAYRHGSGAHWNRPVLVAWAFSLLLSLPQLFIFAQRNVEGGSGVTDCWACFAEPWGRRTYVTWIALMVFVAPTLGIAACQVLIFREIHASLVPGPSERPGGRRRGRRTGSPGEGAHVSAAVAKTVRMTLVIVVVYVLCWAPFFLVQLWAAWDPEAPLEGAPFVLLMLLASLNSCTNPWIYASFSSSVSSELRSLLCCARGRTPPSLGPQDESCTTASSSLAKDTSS
Assay: Displacement of [3H]AVP from human vasopressin V2 receptor expressed in CHO cells at 1000 nM
Type: cell-based
Endpoint: inhibition (%)

In the examples that follow, each entry is paired with its recorded inhibition.
# Compound, Endpoint, Number
rows = [
    ("Cc1ccn(-c2ccc(C(=O)Nc3ccccc3Cn3cccc3C(=O)O)c(Cl)c2)n1", "inhibition", 1),
    ("Cc1ccn(-c2ccc(C(=O)N3CC4C=CC(=O)N4Cc4ccccc43)c(Cl)c2)n1 (centres undefined)", "inhibition", 16),
]

I. Cc1ccn(-c2ccc(C(=O)N3CC4=CCC(=O)N4Cc4ccccc43)c(Cl)c2)n1
II. Cc1ccn(-c2ccc(C(=O)Nc3ccccc3C(=O)O)c(Cl)c2)n1
In: Look at I and II . Which one has the lower recorded inhibition number? Use the label to indicate which entry you chose.
Out: II
(II: 3%, I: 40%)

----------
Target: Vasopressin V1a receptor (Homo sapiens, UniProt P37288)
Sequence (P37288 whole entry, looked up): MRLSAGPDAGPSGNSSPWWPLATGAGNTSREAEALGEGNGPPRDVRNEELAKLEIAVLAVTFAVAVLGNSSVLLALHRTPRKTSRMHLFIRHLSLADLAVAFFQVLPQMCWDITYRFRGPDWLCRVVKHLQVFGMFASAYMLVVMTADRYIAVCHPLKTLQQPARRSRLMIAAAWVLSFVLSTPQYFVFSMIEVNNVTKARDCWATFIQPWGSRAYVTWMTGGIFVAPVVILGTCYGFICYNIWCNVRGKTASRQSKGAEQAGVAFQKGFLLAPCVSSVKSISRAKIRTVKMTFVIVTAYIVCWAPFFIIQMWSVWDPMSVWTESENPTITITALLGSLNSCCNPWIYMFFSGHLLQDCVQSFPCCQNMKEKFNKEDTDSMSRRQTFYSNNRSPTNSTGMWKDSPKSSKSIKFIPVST
Test: Displacement of [3H]manning ligand from human vasopressin V1a receptor expressed in CHO cells at 1000 nM
Format: cell-based
Endpoint: inhibition (%)

# Compound, Study Target, inhibition (%)
records = [
    ("Cc1ccn(-c2ccc(C(=O)N3CC4C=CC(=O)N4Cc4ccccc43)c(Cl)c2)n1 (centres undefined)", "Vasopressin V1a receptor (Homo sapiens, UniProt P37288)", -8),
]

P. Cc1ccn(-c2ccc(C(=O)N3CC4=CCC(=O)N4Cc4ccccc43)c(Cl)c2)n1
Q. Cc1ccn(-c2ccc(C(=O)Nc3ccccc3C(=O)O)c(Cl)c2)n1
R. Cc1ccn(-c2ccc(C(=O)N3C=C4CCC(=O)N4Cc4ccccc43)c(Cl)c2)n1
In: # desc sort on inhibition across 3 compounds Answer by listing the labels in the requested order.
Out: R, P, Q
